# Tested on: KB-3-1
# assayText: killing of drug sensitive (non-MDR) KB-3-1 cells
# Assay type: cell-based
# reportedConditions: Homo sapiens, KB 3-1, read-out: KB-3-1 (IC50; nM)
Known IC50 of a selection of molecules
Please give a number only; it is taken to be in nM.

[[record]]
molecule = "CC(=O)O[C@H]1C(=O)[C@]2(C)C=C[C@H]3OC[C@@]3(OC(C)=O)[C@H]2[C@H](OC(=O)c2ccccc2)[C@]2(O)CC(OC(=O)[C@H](O)[C@@H](NC(=O)NC(C)(C)C)c3ccccc3)=C(C)[C@H]1C2(C)C"
measvalue = 0.078


Check KB-3-1 data and give IC50 for CC(=O)O[C@H]1C(=O)[C@@]2(C)[C@H]([C@H](OC(=O)c3ccccc3)[C@]3(O)C[C@H](OC(=O)[C@H](O)[C@@H](NC(=O)c4ccccc4)c4ccccc4)C(C)=C1C3(C)C)[C@]1(OC(C)=O)CO[C@@H]1C[C@@H]2O [taxol, reference compound] .
1.3

Check KB-3-1 data and give IC50 for CC(=O)O[C@H]1C(=O)[C@]23C[C@H]2C[C@H]2OC[C@@]2(OC(C)=O)[C@H]3[C@H](OC(=O)c2ccccc2)[C@]2(O)CC(OC(=O)[C@H](O)[C@@H](NC(=O)OC(C)(C)C)c3ccccc3)=C(C)[C@H]1C2(C)C .
0.22

Check KB-3-1 data and give IC50 for CC(=O)O[C@H]1C(=O)[C@]2(C)C=C[C@H]3OC[C@@]3(OC(C)=O)[C@H]2[C@H](OC(=O)c2ccccc2)[C@]2(O)CC(OC(=O)[C@H](O)[C@@H](NC(=O)OC(C)(C)C)c3ccccc3)=C(C)[C@H]1C2(C)C .
0.2

###

Known IC50 of a selection of molecules
# Test system: A2780 human ovarian carcinoma
# assayText: cytotoxicity in A2780 human ovarian carcinoma cells
# Assay type: cell-based
# reportedConditions: Homo sapiens, A2780, read-out: A2780 (IC50 μg/ml)
Please give a number only; it is taken to be in µg/mL.

# example entries with known answers
[[record]]
molecule = "CSCO[C@H]1C[C@H]2OC[C@@]2(OC(C)=O)[C@H]2[C@H](OC(=O)c3ccccc3)[C@]3(O)CC(OC(=O)[C@H](O)[C@@H](NC(=O)NC(C)(C)C)c4ccccc4)=C(C)[C@H]([C@@H](OC(C)=O)C(=O)[C@]12C)C3(C)C [Compound 72]"
measvalue = 0.0004

[[record]]
molecule = "COCO[C@H]1C[C@H]2OC[C@@]2(OC(C)=O)[C@H]2[C@H](OC(=O)c3ccccc3)[C@]3(O)CC(OC(=O)[C@H](O)[C@@H](NC(=O)OCc4ccccc4)c4ccccc4)=C(C)[C@H]([C@@H](OC(C)=O)C(=O)[C@]12C)C3(C)C [Compound 64]"
measvalue = 0.0029


API: the following record is the query input.
Given COCO[C@H]1C[C@H]2OC[C@@]2(OC(C)=O)[C@H]2[C@H](OC(=O)c3ccccc3)[C@]3(O)CC(OC(=O)[C@H](O)[C@@H](NC(=O)NC(C)(C)C)c4ccccc4)=C(C)[C@H]([C@@H](OC(C)=O)C(=O)[C@]12C)C3(C)C [Compound 67] , respond with its IC50.
0.00042

###

# Test system: KB-V1
# assayText: killing of multidrug resistant KB-V1 cells
# Format: cell-based
# reportedConditions: ratio of IC50 KB-V1 to IC50 KB-3-1
Known Ratio: KBV-1/KB-3-1 of a selection of compounds
Output: the number by itself.

[[record]]
compound = "COCO[C@H]1C[C@H]2OC[C@@]2(OC(C)=O)[C@H]2[C@H](OC(=O)c3ccccc3)[C@]3(O)CC(OC(=O)[C@H](O)[C@@H](NC(=O)OC(C)(C)C)c4ccccc4)=C(C)[C@H]([C@@H](OC(C)=O)C(=O)[C@]12C)C3(C)C [Compound 66]"
metricname = "Ratio: KBV-1/KB-3-1"
measvalue = 300

[[record]]
compound = "CCOCO[C@H]1C[C@H]2OC[C@@]2(OC(C)=O)[C@H]2[C@H](OC(=O)c3ccccc3)[C@]3(O)CC(OC(=O)[C@H](O)[C@@H](NC(=O)OC(C)(C)C)c4ccccc4)=C(C)[C@H]([C@@H](OC(C)=O)C(=O)[C@]12C)C3(C)C [Compound 41]"
metricname = "Ratio: KBV-1/KB-3-1"
measvalue = 170


API: the following record is the query input.
Given CC(=O)O[C@H]1C(=O)[C@@]2(C)[C@H]([C@H](OC(=O)c3ccccc3)[C@]3(O)CC(OC(=O)[C@H](O)[C@@H](NC(=O)OC(C)(C)C)c4ccccc4)=C(C)[C@H]1C3(C)C)[C@]1(OC(C)=O)CO[C@@H]1C[C@@H]2O [Compound 7] , respond with its Ratio: KBV-1/KB-3-1.
228

###

# System: KB-V1
# assayText: killing of multidrug resistant KB-V1 cells
# Type: cell-based
# reportedConditions: ratio of IC50 KB-V1 to IC50 KB-3-1
Known Ratio: KBV-1/KB-3-1 of a selection of compounds

[[record]]
compound = "CC(=O)O[C@H]1C(=O)[C@]23C[C@H]2C[C@H]2OC[C@@]2(OC(C)=O)[C@H]3[C@H](OC(=O)c2ccccc2)[C@]2(O)CC(OC(=O)[C@H](O)[C@@H](NC(=O)NC(C)(C)C)c3ccccc3)=C(C)[C@H]1C2(C)C"
metricname = "Ratio: KBV-1/KB-3-1"
measvalue = "11,400"

[[record]]
compound = "CCOCO[C@H]1C[C@H]2OC[C@@]2(OC(C)=O)[C@H]2[C@H](OC(=O)c3ccccc3)[C@]3(O)CC(OC(=O)[C@H](O)[C@@H](NC(=O)NC(C)(C)C)c4ccccc4)=C(C)[C@H]([C@@H](OC(C)=O)C(=O)[C@]12C)C3(C)C"
metricname = "Ratio: KBV-1/KB-3-1"
measvalue = "2.5 × 10^5"

[[record]]
compound = "CC(=O)O[C@H]1C(=O)[C@@]2(C)[C@H]([C@H](OC(=O)c3ccccc3)[C@]3(O)CC(OC(=O)[C@H](O)[C@@H](NC(=O)NC(C)(C)C)c4ccccc4)=C(C)[C@H]1C3(C)C)[C@]1(OC(C)=O)CO[C@@H]1C[C@@H]2O [Compound 32b]"
metricname = "Ratio: KBV-1/KB-3-1"
measvalue = "17,650"


API: the following record is the query input.
Given CC(=O)O[C@@]12CO[C@@H]1C[C@H](O)[C@@]1(C)C(=O)[C@H](O)C3=C(C)[C@@H](OC(=O)[C@H](O)[C@@H](NC(=O)OC(C)(C)C)c4ccccc4)C[C@@](O)([C@@H](OC(=O)c4ccccc4)[C@H]21)C3(C)C [taxotere, reference compound] , respond with its Ratio: KBV-1/KB-3-1.
7,570

Origin of values: patent US5821363A
